Cited source: patent US7425551B2

Molecular target: γ-secretase (Homo sapiens)
Construct: uses a HEK293 membrane fraction as a source of γ-secretase; endogenous in cells
Assay: in vitro assay of γ-secretase activity (HEK293 membrane fraction, recombinant APP substrate, Abeta ELISA)
Settings: γ-secretase inhibition; HEK293 membrane fraction solubilized in 0.25% CHAPSO, recombinant human APP C-terminal 100 amino acids substrate, Abeta detected by ELISA
pIC50: −log10 of the molar value.
recordedMetric: pIC50

# molecule, assaySystem, pIC50
rows = [
    ("COCCN1C(=O)[C@@H](NC(=O)[C@@](C)(F)C(=O)NCC(F)(F)C(F)(F)F)c2ccccc2-c2ccccc21 [Example 32]", "γ-secretase (Homo sapiens)", 7.74),
]

A = CC(O)(C(=O)NCCC(F)(F)F)C(=O)N[C@@H]1C(=O)N(CCO)c2ccccc2-c2ccccc21 (stereo partly drawn) [Example 64]
B = O=C(CC(=O)N[C@@H]1C(=O)N(CCOCc2ccccc2)c2ccccc2-c2ccccc21)NCC(F)(F)C(F)(F)F [Example 7]
Which numeric pIC50 is bigger, that of A or that of B ? Kindly give the label for the entry you pick.
A
